Items are presented alongside their recorded CRF2R Emax %.
Biological target: T1, CRF2R; note: reference of the scale not given here
T1 sequence (Q13324 whole entry, species assumed, looked up): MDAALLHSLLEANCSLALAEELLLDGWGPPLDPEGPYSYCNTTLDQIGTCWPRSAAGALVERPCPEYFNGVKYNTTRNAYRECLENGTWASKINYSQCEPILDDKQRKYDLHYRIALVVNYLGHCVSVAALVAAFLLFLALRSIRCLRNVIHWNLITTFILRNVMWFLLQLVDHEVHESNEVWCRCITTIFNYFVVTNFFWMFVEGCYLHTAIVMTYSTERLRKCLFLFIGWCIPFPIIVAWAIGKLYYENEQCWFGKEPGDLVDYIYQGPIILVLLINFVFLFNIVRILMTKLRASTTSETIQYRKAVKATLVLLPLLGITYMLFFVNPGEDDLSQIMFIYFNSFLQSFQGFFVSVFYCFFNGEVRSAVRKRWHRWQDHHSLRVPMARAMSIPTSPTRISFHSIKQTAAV
Experiment: cell-based or functional assay
Ends that are not written are not given here.

Answered cases to consult:
INSERT INTO measurements (binder, result) VALUES
  ('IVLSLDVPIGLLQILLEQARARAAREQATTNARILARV-NH2 [SEQ ID NO 354]', '100%'),
  ('DNPSLSIDLPLLLLRTLLELEKTQSQRERAEQNARIFARV-NH2 [SEQ ID NO 341]', '95.5%'),
  ('ZGPPISIDLPFFLLRKVIEIEKQEKEKQQAANNALLLDTI (C-terminal amide) [SEQ ID NO 316]', '94.5%'),
  ('ZGPPISIDLPLHLLRKMIEIEKQEKEKQQAANNALLLATI (C-terminal amide) [SEQ ID NO 241]', '99%'),
  ('ZGPPISIDLPFQLLRKVIEIEKQEKEKQQAANNAQLLAHI (not fully specified; C-terminal amide) [SEQ ID NO 273]', '100%');

Moving on to the next binder.
Q: Name the recorded CRF2R Emax % for ZGPPISIDLPFWLLRKMIEIEKQEKEKQQAANNRLLLDTI (C-terminal amide) [SEQ ID NO 217] .
Result: 95%

Value source: patent US20030148958A1
